Biological target: receptor-binding domain (RBD) of the SARS-COV-2 spike (S) protein (SARS-COV-2, UniProt P0DTC2 319-541)
Assay: SPR kinetic
Measured kon, listed per entry for reference.
Report as a plain number; the unit M⁻¹ s⁻¹ is understood.

Need kon, item RBD1 (VHH) VHH: QVQLQESGGGLVQAGGSLRLSCAASGTISYENFMGWYRQAPGKERELVAGINDGTNTYYADSVKGRFTISRDNAKNTVYLQMNSLKPEDTAVYYCAVIGTSVLGHAYWGQGTQVTVSS
15800

# lookup: kon of RBD1i13 (VHH) VHH: QVQLQESGGGLVQAGGSLRLSCAASGTISYENFMGWYRQAPGKGRKLVAGINDGTNTYYADSVKGRFTISRDNAKNTVYLQMNSLEPEDTAVYYCAVIGASVLGHAYWGQGTQVTVSS
67200

Which kon value belongs to RBD1i1 (VHH) VHH: QVQLQESGGGLVQAGGSLRLSCAASGTISYENFMGWYRQAPGKERKLVAGINDGTNTYYADSVKGRFTISRDNAKNTVYLQMNSLKPEDTAVYYCAVIGASVLGHAYWGQGTQVTVSS ?
47700

If you can, please state the reported kon value of RBD6 (VHH) VHH: QVQLQESGGGLVQAGGSLRLSCAASGSISTTYLMGWYRQAPGKEREFVATINRGGSTYYADSVKGRFTISRDNAKNTVYLQMNSLKPEDTAVYYCAVGWPDPDYGLAYHRYWGQGTQVTVSS .
9010

This collection of values is drawn from patent US20240182911A1.
